Each recorded value in this set is attributed to paper PMC3880865.

Biological target: UbcH5B (UniProt P62837 1-147)
Test: SPR
The entries below come with measured Kd values attached.
Express it in µM; write the number only.

Kd reported for this binder GST-CBL47–435 Y368F pY371 K389A (domain or fragment, phosphotyrosine at 371) PPGTVDKKMVEKCWKLMDKVVRLCQNPKLALKNSPPYILDLLPDTYQHLRTILSRYEGKMETLGENEYFRVFMENLMKKTKQTISLFKEGKERMYEENSQPRRNLTKLSLIFSHMLAELKGIFPSGLFQGDTFRITKADAAEFWRKAFGEKTIVPWKSFRQALHEVHPISSGLEAMALKSTIDLTCNDYISVFEFDIFTRLFQPWSSLLRNWNSLAVTHPGYMAFLTYDEVKARLQKFIHKPGSYIFRLSCTRLGQWAIGYVTADGNILQTIPHNKPLFQALIDGFREGFYLFPDGRNQNPDLTGLCEPTPQDHIKVTQEQFELYCEMGSTFQLCKICAENDADVKIEPCGHLMCTSCLTSWQESEGQGCPFCRCEIKGTEPIVVDPFD : 81

Kd reported for this binder GST-CBL47–435 M222F (domain or fragment) PPGTVDKKMVEKCWKLMDKVVRLCQNPKLALKNSPPYILDLLPDTYQHLRTILSRYEGKMETLGENEYFRVFMENLMKKTKQTISLFKEGKERMYEENSQPRRNLTKLSLIFSHMLAELKGIFPSGLFQGDTFRITKADAAEFWRKAFGEKTIVPWKSFRQALHEVHPISSGLEAFALKSTIDLTCNDYISVFEFDIFTRLFQPWSSLLRNWNSLAVTHPGYMAFLTYDEVKARLQKFIHKPGSYIFRLSCTRLGQWAIGYVTADGNILQTIPHNKPLFQALIDGFREGFYLFPDGRNQNPDLTGLCEPTPQDHIKVTQEQYELYCEMGSTFQLCKICAENDKDVKIEPCGHLMCTSCLTSWQESEGQGCPFCRCEIKGTEPIVVDPFD : 320

Kd reported for this binder GST-CBL47–435 Y368F pY371 V431A (domain or fragment, phosphotyrosine at 371) PPGTVDKKMVEKCWKLMDKVVRLCQNPKLALKNSPPYILDLLPDTYQHLRTILSRYEGKMETLGENEYFRVFMENLMKKTKQTISLFKEGKERMYEENSQPRRNLTKLSLIFSHMLAELKGIFPSGLFQGDTFRITKADAAEFWRKAFGEKTIVPWKSFRQALHEVHPISSGLEAMALKSTIDLTCNDYISVFEFDIFTRLFQPWSSLLRNWNSLAVTHPGYMAFLTYDEVKARLQKFIHKPGSYIFRLSCTRLGQWAIGYVTADGNILQTIPHNKPLFQALIDGFREGFYLFPDGRNQNPDLTGLCEPTPQDHIKVTQEQFELYCEMGSTFQLCKICAENDKDVKIEPCGHLMCTSCLTSWQESEGQGCPFCRCEIKGTEPIVADPFD : 43

Kd reported for this binder GST-CBL354–435 Y371F (domain or fragment) EPTPQDHIKVTQEQYELFCEMGSTFQLCKICAENDKDVKIEPCGHLMCTSCLTSWQESEGQGCPFCRCEIKGTEPIVVDPFD : 50
